Record form. Attribute: IC50. Fill in for each entry.
Molecular target: mouse TRPM3α2 (mTRPM3) ion channel (Mus musculus, UniProt J9SQF3)
Construct: expressed in transfected cells; host or cells: flip-in (Flp-In) HEK293
Sequence (J9SQF3 1-1709 isoform J9SQF3-12): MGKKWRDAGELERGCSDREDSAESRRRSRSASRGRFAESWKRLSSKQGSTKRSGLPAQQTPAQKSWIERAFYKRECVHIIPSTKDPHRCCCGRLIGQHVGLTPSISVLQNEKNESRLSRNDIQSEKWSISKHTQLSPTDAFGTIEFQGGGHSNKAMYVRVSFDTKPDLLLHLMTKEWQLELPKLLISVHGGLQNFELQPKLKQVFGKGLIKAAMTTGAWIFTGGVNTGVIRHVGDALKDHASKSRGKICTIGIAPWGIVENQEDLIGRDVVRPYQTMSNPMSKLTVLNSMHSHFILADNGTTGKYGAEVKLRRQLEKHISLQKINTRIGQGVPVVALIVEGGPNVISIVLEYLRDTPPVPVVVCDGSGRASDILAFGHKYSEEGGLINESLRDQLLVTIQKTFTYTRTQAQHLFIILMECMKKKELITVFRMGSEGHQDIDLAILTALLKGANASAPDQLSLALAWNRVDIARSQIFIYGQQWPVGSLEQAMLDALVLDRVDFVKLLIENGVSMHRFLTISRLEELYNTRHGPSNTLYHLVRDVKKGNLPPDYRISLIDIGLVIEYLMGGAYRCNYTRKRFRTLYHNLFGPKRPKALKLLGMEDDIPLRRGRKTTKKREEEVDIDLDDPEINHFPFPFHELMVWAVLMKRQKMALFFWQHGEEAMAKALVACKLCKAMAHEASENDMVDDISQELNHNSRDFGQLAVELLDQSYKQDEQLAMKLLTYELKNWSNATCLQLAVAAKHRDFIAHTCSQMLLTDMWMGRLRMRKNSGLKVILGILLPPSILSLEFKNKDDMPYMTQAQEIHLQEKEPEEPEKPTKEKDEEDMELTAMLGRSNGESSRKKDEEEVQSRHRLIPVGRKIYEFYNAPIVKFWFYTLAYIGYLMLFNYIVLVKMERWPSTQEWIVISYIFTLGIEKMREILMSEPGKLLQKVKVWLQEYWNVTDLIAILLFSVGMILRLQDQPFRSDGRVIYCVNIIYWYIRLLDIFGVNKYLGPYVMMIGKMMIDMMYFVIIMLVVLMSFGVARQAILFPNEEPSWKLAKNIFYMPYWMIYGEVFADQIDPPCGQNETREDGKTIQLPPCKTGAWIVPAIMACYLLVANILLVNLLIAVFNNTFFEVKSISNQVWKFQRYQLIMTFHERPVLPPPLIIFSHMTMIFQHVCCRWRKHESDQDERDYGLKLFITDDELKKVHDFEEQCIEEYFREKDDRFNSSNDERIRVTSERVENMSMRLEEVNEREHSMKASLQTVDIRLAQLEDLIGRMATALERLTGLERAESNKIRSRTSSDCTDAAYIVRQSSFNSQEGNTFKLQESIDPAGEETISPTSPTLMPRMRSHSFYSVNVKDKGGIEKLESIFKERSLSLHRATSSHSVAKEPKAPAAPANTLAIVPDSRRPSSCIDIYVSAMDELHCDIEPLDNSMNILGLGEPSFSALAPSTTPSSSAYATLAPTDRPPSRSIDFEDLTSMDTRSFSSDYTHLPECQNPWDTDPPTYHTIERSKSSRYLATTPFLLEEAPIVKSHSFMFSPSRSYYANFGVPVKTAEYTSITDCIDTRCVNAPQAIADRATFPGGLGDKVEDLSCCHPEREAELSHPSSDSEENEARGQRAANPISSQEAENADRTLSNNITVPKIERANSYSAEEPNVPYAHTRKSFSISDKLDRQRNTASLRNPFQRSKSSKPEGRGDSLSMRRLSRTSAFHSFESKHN
Assay: Monitoring the TRPM3 ion channel driven Ca2+ uptake (Fluo-4 AM assay)
Type: cell-based
Conditions: mTRPM3alpha2 overexpressing flip-in HEK293 cells, stimulated with Pregnenolone sulfate (PS) 50 μM

Below, 5 molecules whose answers are already recorded.
In [3]: df
Out[3]:
                                   molecule         obs_value
0  Cc1oc2ccc(OCC3CC3)cc2c1C(=O)NC1(CO)CCCNC1=O (single isomer, unassigned) [Cpd 027 - En2]  1000 to 20000 nM
1  Cc1oc2ccc(OCC3CC3)cc2c1C(=O)NC(C)(CO)CC(F)F (single isomer, unassigned) [Cpd 046 - En2]         < 1000 nM
2    Cc1oc2ccc(OCC3CC3)cc2c1C(=O)NC1(CO)CC1  1000 to 20000 nM
3  Cc1oc2ccc(OCC3CC3)cc2c1C(=O)NC1(C(N)=O)CCOCC1         < 1000 nM
4  Cc1oc2ccc(OCC(F)F)cc2c1C(=O)NC(C)(CO)C(N)=O (single isomer, unassigned) [Cpd 041 - En1]         < 1000 nM

Please give IC50, item by item, for the list that follows.
1. Cc1oc2ccc(OCC3CCC3)cc2c1C(=O)NC(C)(CO)CO
2. Cc1oc2ccc(OC[C@H]3C[C@@H](C)C3)cc2c1C(=O)NC(C)(CO)C(N)=O (single isomer, unassigned) [Cpd 058 - En2]
3. Cc1oc2ccc(OCC3CC3(F)F)cc2c1C(=O)NC(CO)CC(F)(F)F (single isomer, unassigned) [Cpd 057 - En4]

< 1000 nM
1000 to 20000 nM
1000 to 20000 nM
